Test system: Fibroblast
Assay: Multiplex assay against human fibroblast
Format: toxicity, cell-based
Details: 48 h, 1 µM, compound concentration 1 uM, replicate 2
Kindly supply the reported Population Apoptotic (%) values for the records listed here.
API: value field is a number in %; no unit string.

(Q) Please give the measured Population Apoptotic (%) for this compound: OCCCNc1cc(-c2ccnc(Nc3cccc(Cl)c3)n2)ccn1
(A) 37

(Q) Try this compound next: CCn1c(-c2nc3cc(C(=O)N4CCCC(N)C4)ccc3n2C)cc2ccccc21.Cl (centres undefined)
(A) 51

(Q) Try this compound next: COc1ccc2c(c1OCc1ccccc1)C[C@@H](C(=O)O)N(C(=O)C(c1ccccc1)c1ccccc1)C2 [OLODANRIGAN]
(A) 41

(Q) Try this compound next: Cc1cc(NC(=O)NCCN2CCC(O)(Cc3ccccc3)CC2)c2ccccc2n1 [PALOSURAN]
(A) 61

(Q) Try this compound next: Cn1cc(C(=O)OCC2CCN(CCNS(C)(=O)=O)CC2)c2ccccc21
(A) 52

(Q) Try this compound next: CN1CCC(C(=O)c2cccc(NC(=O)c3c(F)cc(F)cc3F)n2)CC1
(A) 56

(Q) Try this compound next: Cc1cc(=O)n(C)c2cc(N3C(=O)CC[C@H](NS(=O)(=O)CC(C)C)[C@H]3c3ccc(Cl)cc3)ccc12
(A) 46

(Q) Try this compound next: N[C@](CC1c2ccccc2Oc2ccccc21)(C(=O)O)[C@H]1C[C@@H]1C(=O)O
(A) 23

(Q) Try this compound next: Nc1nc(-c2ccco2)c2cnn(Cc3ccccc3F)c2n1
(A) 57
